FYI, the data here is from ChEMBL document CHEMBL1961873.

- target_or_system: Tyrosine-protein kinase ABL2 (Homo sapiens);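 further: values are mean percent inhibition of ARG (ABL2), measured within the GSK PKIS set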
- protocol_conditions: at 0.1 µM
Listed below: inhibition values for each entry.
quantity_measured: inhibition (%)

- Nc1nc(-c2ccc(F)cc2)c(-c2ccc3ncccc3n2)s1: 6.71
- COc1ccc(-c2nn3ncccc3c2-c2ccnc(Nc3ccc4c(c3)OCCO4)n2)cc1: 5.47
- COC(=O)Nc1nc2ccc(S(=O)(=O)c3ccc(NC(=O)Nc4cc(C(F)(F)F)ccc4F)cc3)cc2[nH]1: 5.17
- COc1ccc(-c2oc3ncnc(N)c3c2-c2ccc(NC(=O)Nc3cc(C(F)(F)F)ccc3F)cc2)cc1: 13.6
- CC(=O)Nc1cccc(C#Cc2cncnc2Nc2ccc(OCc3cccc(F)c3)c(Cl)c2)c1: 2.39
- CCn1cc(-c2ccnc3[nH]ccc23)c(-c2cccc(NC(=O)Nc3ccc(OCc4ccccc4)cc3)c2)n1: 0.39
- CCN(CC)S(=O)(=O)c1ccc(OC)c(Nc2ncc(-c3ccccc3)o2)c1: 6.09
- CS(=O)(=O)CCNCc1ccc(-c2ccc3ncnc(Nc4ccc(OCc5ccccc5)c(C(F)(F)F)c4)c3c2)o1: 4.59
- Cc1ccc2c(-c3ccnc(Nc4ccccc4)n3)c(-c3ccc(F)cc3)nn2n1: 4.61
- c1cc(-c2cnn3nc(N4CCOCC4)ccc23)nc(NC2CC2)n1: 3.73
- CN1CCC(n2cnc(-c3ccc(F)cc3)c2-c2ccnc(Nc3ccccc3)n2)CC1: 3.42
- CCn1c(-c2nonc2N)nc2c(C#CC(C)(C)O)ncc(OC3CCNCC3)c21: 2.02
- COc1ccc(CNC(=O)c2ccc(-c3cc(-c4nnc(C)o4)ccc3C)cc2)cc1: 4.31
- CCNC(=O)O[C@H]1CN[C@H](C#Cc2cc3ncnc(Nc4ccc(OCc5cccc(F)c5)c(Cl)c4)c3s2)C1: 3.5
- CC(=O)NCc1cccc(C#Cc2cncnc2Nc2ccc(OCc3cccc(F)c3)c(Cl)c2)c1: -0.67
- NC(=O)c1sc(-n2cnc3ccc(C(F)(F)F)cc32)cc1OCc1ccccc1Br: 1.79
- Clc1ccc(-c2nn3ncccc3c2-c2ccnc(Nc3ccccc3)n2)cc1: 3.8
- COc1cc2ncn(-c3cc(OCc4ccccc4C(F)(F)F)c(C(=O)N(C)C)s3)c2cc1OC: 4.85
- CS(=O)(=O)CCNCc1coc(-c2ccc3ncnc(Nc4ccc(OCc5ccccc5)cc4)c3c2)c1: 3.06
- CNC(=O)c1cc(-c2ccc(F)cc2)cc(-c2ccc(S(=O)(=O)N3CCCC3)cc2)c1N: 2.17
- O=S(=O)(CCNCc1ccc(-c2ccc3ncnc(Nc4ccc(OCc5cccc(F)c5)c(Cl)c4)c3c2)o1)c1ccccc1: 4.64
- FC(F)(F)c1cccc(-c2nn3ncccc3c2-c2ccnc(Nc3ccc4c(c3)OCCO4)n2)c1: 4.21
- COc1ccc2c(-c3ccnc(Nc4cccc(OC(F)(F)F)c4)n3)cnn2n1: 4.05
- COc1ccc(-c2cc(-c3c[nH]nc3-c3ccccn3)ccn2)cc1: 3.35
- CCn1c(-c2nonc2N)nc2c(C#CC(C)(C)O)nc(OC[C@H](N)c3ccccc3)cc21: 2.63
- c1ccc(COc2ccc(Nc3ncnc4ccc(-c5ccco5)cc34)cc2)cc1: 2.41
- Fc1ccc(-c2cc(-c3c[nH]nc3-c3ccccn3)ccn2)cc1: 2.48
- [O-][S+]1CCN(Cc2ccc(-c3ccc4ncnc(Nc5ccc(OCc6cccc(F)c6)c(Cl)c5)c4c3)o2)CC1: 1.01
- COc1ccc2[nH]c3c4[nH]c5ccc(OC)cc5c4c4c(c3c2c1)C(=O)NC4=O: 3.1
- COc1cccc(-c2c[nH]c3c(N/N=C/c4ccncc4)ncnc23)c1: 41.8
- COc1ccc(-c2cc3c(N)ncnc3o2)cc1: 0.1
- CCOc1ccc2c(-c3ccnc(Nc4cccc(C(F)(F)F)c4)n3)cnn2n1: 2.04
- COc1cc(Nc2nccc(Nc3ccc4c(C)n[nH]c4c3)n2)cc(OC)c1OC: 18.4
- O=C(O[C@H]1CN[C@H](C#Cc2cc3ncnc(Nc4ccc(Cc5ccccc5)cc4)c3s2)C1)N1CCOCC1: -0.08
- CCc1nn2ncccc2c1-c1ccnc(NC2CC2)n1: 2.35
- COc1cc(N2CCN(C(C)C)CC2)ccc1Nc1nc(Nc2ccc(F)cc2C(N)=O)c2cc[nH]c2n1: -0.12
- CCCN(CCS(C)(=O)=O)Cc1ccc(-c2ccc3ncnc(Nc4ccc(OCc5cccc(F)c5)c(Cl)c4)c3c2)o1: 7.3
- CCn1c(-c2nonc2N)nc2ccccc21: 4.04
